- System tested: NE reuptake (NE transporter) (Rattus norvegicus)
- Construct: from tissue; host or cells: Wistar rat brain (procerebrum; crude synaptosomal supernatant)
- Sequence (Q63380 1-617): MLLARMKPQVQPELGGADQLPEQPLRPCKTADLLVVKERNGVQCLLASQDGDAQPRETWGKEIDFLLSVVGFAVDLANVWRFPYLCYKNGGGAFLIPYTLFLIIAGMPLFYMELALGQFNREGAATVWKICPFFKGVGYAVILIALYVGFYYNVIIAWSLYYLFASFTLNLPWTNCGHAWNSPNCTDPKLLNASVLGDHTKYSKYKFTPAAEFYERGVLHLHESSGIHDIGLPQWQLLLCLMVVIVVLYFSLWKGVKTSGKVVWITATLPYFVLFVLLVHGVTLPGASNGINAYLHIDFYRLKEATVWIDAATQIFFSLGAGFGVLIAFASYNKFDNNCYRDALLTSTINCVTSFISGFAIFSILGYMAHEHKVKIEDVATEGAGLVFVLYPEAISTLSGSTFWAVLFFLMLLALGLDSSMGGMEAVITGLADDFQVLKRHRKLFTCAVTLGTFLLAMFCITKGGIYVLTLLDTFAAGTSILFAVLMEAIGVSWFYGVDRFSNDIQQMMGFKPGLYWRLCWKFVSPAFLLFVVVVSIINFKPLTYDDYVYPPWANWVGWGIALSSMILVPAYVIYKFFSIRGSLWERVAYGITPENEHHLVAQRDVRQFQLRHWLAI
- Method summary: Inhibition of NE reuptake in rat brain synaptosome (3H-NE uptake)
- Format: biochemical
- Conditions: 10 μM, read-out: NE reuptake percent inhibition
- Protocol: All the target compounds were evaluated for their inhibitory activity against the reuptake of 5-HT and NE at the cellular level. Rat brain tissue was used for the uptake test, which included ^3H-5-HT and ^3H-NE [15]. […] Adult male Wistar rats were used. […] The fiberglass filter membrane was washed three times with ice-cold saline, placed in a scintillation vial, and counted in liquid scintillation cocktail (4 mL). […]
Quick rule for you: inhibition at 10 µM at 60% or higher means YES, lower means NO.

Some solved cases for reference:
| Cpd smiles | Class name |
| --- | --- |
| Fc1ccccc1/C(=N\Cc1cccc2ccccc12)N1CCNCC1 | YES |
| c1ccc(/C(=N\Cc2cccc3ccccc23)N2CCNCC2)cc1 | YES |
| Cc1ccc(/C(=N\Cc2ccccc2)N2CCNCC2)cc1 | NO |
| Clc1ccc(/C(=N\Cc2ccccc2)N2CCNCC2)cc1 | NO |
| N#Cc1ccc(/C(=N\Cc2ccccc2)N2CCNCC2)cc1 | YES |
| Clc1ccc(C/N=C(\c2ccccc2Cl)N2CCNCC2)cc1 | YES |
| N#Cc1ccc(/C(=N\Cc2ccc(Cl)cc2)N2CCNCC2)cc1 | YES |

Now turn to the next molecule.
Lookup: Answer whether inhibition at 10 µM of `N#Cc1cccc(/C(=N\Cc2cccc3ccccc23)N2CCNCC2)c1` is greater than or equal to 60%.
Found: NO
